# System: CFH18-20 (human complement factor H CCP18-20) with myc tag and His-tag (human) (UniProt P08603)
# Sequence (P08603 1046-1231): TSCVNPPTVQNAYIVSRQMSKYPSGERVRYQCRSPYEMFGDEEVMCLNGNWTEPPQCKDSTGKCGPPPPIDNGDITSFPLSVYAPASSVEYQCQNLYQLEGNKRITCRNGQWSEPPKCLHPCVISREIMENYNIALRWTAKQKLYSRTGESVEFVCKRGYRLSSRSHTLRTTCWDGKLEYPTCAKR
# Procedure details: ITC; CFH18-20 in the cell (5-15 uM), VHH4 or mutants in the syringe (50-150 uM), 20 injections; PBS pH 7.4, 25 °C; iTC200
The following binders are shown together with reported stoichiometry N values.
Reply: number alone, nothing else.

VHH4 (VHH, alpaca VHH selected by phage display; CDR3 is Ala99-Tyr122; Disulfide bond between Cys50 and Cys106; also called VHH4 WT; WT; source: E. coli BL21 (DE3), purified (Ni-NTA, SEC)) VHH: QVQLVESGGGLVQAGGSLRLSCAASGLTVDDYAIGWFRQAPGKEREGVSCISSSNGSTYYADSVKGRFTISSDNAKNTAYLQMNSLKPEDTAVYYCAAAVSPNLECGTGPFGIYASYYGMDYWGQGTQVTVSS
0.895

Kindly review the next binder as well.
Lookup: Recorded stoichiometry N of VHH4 T108A (VHH) VHH: QVQLVESGGGLVQAGGSLRLSCAASGLTVDDYAIGWFRQAPGKEREGVSCISSSNGSTYYADSVKGRFTISSDNAKNTAYLQMNSLKPEDTAVYYCAAAVSPNLECGAGPFGIYASYYGMDYWGQGTQVTVSS , please.
Found: 0.924
